Assay info: yeast display, Sf9 membrane polyspecificity reagent, FACS + sequencing; frameworks hold sequencing errors
Observation type: polyreactivity (PSR sort gate)

Previously resolved entries follow.
1. QVQLVESVGGLVQAGGSLRLSCAASGFTFYTYAMGWYRQAPGKERELVAAINQRGGRTYYADSVKGRFTISRDNAKNTVYLQMNSLKPEDTAVYYCAKSPPPKTRYDYWGQGTQVTVSS high polyreactivity
2. QVQLVESGGGLVQAGGSLRLSCAASGSIFGVYAMGWYRQAPGKERELVASITSGSSTNYADSVKGRFTISRDNAKNTVYLQMNSLKPEDTAVYYCAAGRTSRSRRYYRFFYAGDYWGQGTQVTVSS low polyreactivity
3. QVQLVESGGGLVQAGGSLRLSCAASGIIFGYYAMGWYRQAPGKERELVAAINQDGSSTYYADSVKGRFTISRDNAKNTVYFQMNSLKPEDTAVYYCNARGVPRQDARMGYWGQGTQVTVSS low polyreactivity
4. QVQLVESGGGLVQAGGSLRLSCAASGFIFGRYAMGWYRQAPGKERELVAVITWSGGRTYYADSVKGRFTISRDNAKNTVYLQMNSLKPEDTAVYDCAADRYPYHYGYDYWGQGTQVTVSS high polyreactivity

Kindly consider the entry below.
Request: Could you please provide reported polyreactivity (PSR sort gate) for `QVQLVESGGGLVQAGGSLRISCAASGITFRYYTMGWYRQAPGKERELVAAINYRGGRTYYADSVKGRFTISRDNAKNTVYLQMNSLKPEDTAVYYCNTARVSRLGWSTTSDSWGQGTQVTVSS` ? Thanks!
Response: high polyreactivity

###

Assay info: yeast display, Sf9 membrane polyspecificity reagent, FACS + sequencing; frameworks hold sequencing errors
Observation type: polyreactivity (PSR sort gate)

1) QVQLVESGGGLVQAGGSLRLSCAASGFTFRVYAMGRYRQAPGKERELVAVISGTGGRTYYADSVKGRFTISRDNAKNTVYLQMNSLKPEDTAVYYCARRGRPPAIYDYWGQGTQVTVSS high polyreactivity
2) QVQLVDSGGGLVQAGGSLRLSCAASGRILYANAMGWYRQAPGKERELVAAIRYSDDSTYYADSVKGRFTISRDNAKNTVYLHMNSLKPEDTAVYYCNADYLRWDIWYWHGYDYWGQGTQVTVSS high polyreactivity
3) QVQLVETGGGLVQAGGSLRLSCAASGGIFEINVMGWYRQAPGKERELVAGINWSGTSTYFADSVKGRFTISRDNAKNTVYLQMNTLTPEDTSVYYCAAESYYRYVVPYDYWGQGTQVTVSS high polyreactivity
4) QVQLVESGGCLVQAGGSLRLSCAASGSIFYKYAMGWYRQAPGKERELVAAITSGGRTTYADSVKGRFTISRDNAKNTVYLQMNSLKPEDTAVYYCAAVVFSRRYWVKFYYWGQGTQVNVSS high polyreactivity

Request: Could you please provide reported polyreactivity (PSR sort gate) for `QVQLVESGGGLVQAGGSLRLSCAASGRTFARYVMGWYRQAPGKERELVAAINSGGNTYYADSVKGRFTISRDNAKNTVYLQMNSLKPEDTAVYYCAVKAARTYYWGQGTQVTVSS` ? Thanks!
Response: high polyreactivity

###

Assay info: yeast display, Sf9 membrane polyspecificity reagent, FACS + sequencing; frameworks hold sequencing errors
Observation type: polyreactivity (PSR sort gate)

Previously resolved entries follow.
1. QVQLVESGGGLVQAGGSLRLSCAASGSIFKVYAMGWYRQAPGKEREWVAAITWRGGSTYYADSVKGRFTISRDNAKNTVYLQMKSLKPEDTAVYYCGTEYCWKYDYWGQGTQVTVSS low polyreactivity
2. QVQLVESGGGLVQAGGSLRLSCAASGRIFTVYALGWSRQAPGKERELVAAISRGRSTYADSVKGRFTISRDNAKNTVYLQLNSLKPEDTGVYYCAAVNFRKGEDYWGQGTQVTVSS high polyreactivity
3. QVQLVESGGGLVQAGGSLRLSCAASGFIFDHYAMGWYRQAPGKERELVAAISGSGGSTYYADSVKGRFPISRDNAKNTVYLQMNSLKPEDTAVYYCAARPGSKYAQRGYWGQGTHVTVSS high polyreactivity
4. QVQLVESGGGLVQAGGSLRLSCAASGSIIARYAMGWYRQSPGKERELVAAITCSATSTYYADSVKGRFTISRDYAKNTVYLQLNSLKPEDTAVYYWNAGASYFLVISQSRRDYWGQGTQVTVSS low polyreactivity

Request: Could you please provide reported polyreactivity (PSR sort gate) for `QVQLVESGGGLVQAGGSLRLTCAASGSIFGYAMGWYRQEPGKERELVAAISFSGVSTYYADSVKGRFTISRDNAKNTVYLLMNSLKPEDTAVYDCNAYSDGDEDYWGQGTQVTVSS` ? Thanks!
Response: low polyreactivity

Request: Could you please provide reported polyreactivity (PSR sort gate) for `QVQLVESRGGLVQAGGSLRLSCAASGSTRGSNAMGRYRQAPGKEMELVAAITWSGGTTYYADSVKGRFTISRDNAKNTVYLQMHSLKPEDTSVYYCATGQSVIYRYEYWGQGTQVTVSS` ? Thanks!
Response: low polyreactivity

Request: Could you please provide reported polyreactivity (PSR sort gate) for `QVQLVESGGGLVQAGGSLRLSCAASGLTFTSNVMGWYRQAPGKERELVAAISSGGSTYYADSVKGRFTISRDNAKNTVYLQMNSLKPEDTAVYYCNTKLWGQYDYWGQGTQVTVSS` ? Thanks!
Response: low polyreactivity

Request: Could you please provide reported polyreactivity (PSR sort gate) for `QVQLVESGGGLVQAGGSLRLSCAASGRIFVGNALGWYRKAPGKERELVAAISGSGDSTYYADSVKGRFTISRDNAKNTVYLQMNSLKPEDTAVYYCNVDYDFVIYYYWYYPGYDYWGQGTQVTVSS` ? Thanks!
Response: low polyreactivity

Request: Could you please provide reported polyreactivity (PSR sort gate) for `QVQLVESGGGLVQAGGSLRLSCAASGSTSGRNVMGWYRQSPGKERELVAAISSRGGSTYYADSVKGRFTISRDNEKNTVYLQMNSLKPEDTAVYYCASRYGAYSGYDYWGQGTQVTVSS` ? Thanks!
Response: high polyreactivity

Request: Could you please provide reported polyreactivity (PSR sort gate) for `QVQLVESVGGLVQAGGSLRLSCAASGSIFGYYAMGWYRQAPGKDRELVAGINWSGGSTYADSVKGRFTISRDNAKNTVYIQMNSLKPEDTAVYYCNRRYRKDSSAKYDYWGQGTQVTVSS` ? Thanks!
Response: high polyreactivity

Request: Could you please provide reported polyreactivity (PSR sort gate) for `QVQLVESGGGLVQAGGSLRLSCAASGIIFYYYAMGWYRQAPGKERELVAAISWSGGSTYYADSVKGRFTISRDNAKNTVYLQMNSLKPEDTAVYYCAASSTSGYDWGQGTQVTVSS` ? Thanks!
Response: low polyreactivity
